The reported measurements were obtained from ChEMBL document CHEMBL5126545.

IC50: recorded values
- Assayed System: Glycogen synthase kinase-3 beta (Homo sapiens)
- Sequence (P49841 whole entry): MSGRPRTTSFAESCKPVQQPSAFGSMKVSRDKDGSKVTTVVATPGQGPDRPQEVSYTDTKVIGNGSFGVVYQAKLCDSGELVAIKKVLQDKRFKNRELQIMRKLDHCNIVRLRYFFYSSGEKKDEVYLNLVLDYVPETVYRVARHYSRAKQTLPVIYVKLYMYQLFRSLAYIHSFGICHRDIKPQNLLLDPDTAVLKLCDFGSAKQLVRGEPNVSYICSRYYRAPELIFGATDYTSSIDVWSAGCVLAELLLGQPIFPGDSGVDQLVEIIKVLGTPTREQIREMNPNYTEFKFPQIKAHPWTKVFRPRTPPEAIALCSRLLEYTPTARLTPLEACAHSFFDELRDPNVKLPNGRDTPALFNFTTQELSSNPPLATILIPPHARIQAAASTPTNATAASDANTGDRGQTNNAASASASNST
- Assay Info: Inhibition of GSK-3beta (unknown origin) using peptide YRRAAVPPSPSLSRHSSPHQ(pS)EDEEE as substrate incubated for 5 to 60 mins by ADP-Glo kinase assay
Field: numeric (µM). Do not append units.

Known results for compounds:
Smiles Notation: COc1ccc(-c2cc(=O)c3c(OC)c([C@@H]4O[C@H](C(=O)NC(C)C)[C@@H](O)[C@H](O)[C@H]4O)c(OC)cc3o2)cc1OC
Number: 5
//
Smiles Notation: COc1ccc(-c2cc(=O)c3c(OC)c([C@@H]4O[C@H](C(=O)N[C@H](C)C(F)(F)F)[C@@H](O)[C@H](O)[C@H]4O)c(OC)cc3o2)cc1OC
Number: 0.6
//
Smiles Notation: COc1ccc(-c2cc(=O)c3c(OC)c([C@@H]4O[C@H](C(=O)NCc5ccccc5)[C@@H](O)[C@H](O)[C@H]4O)c(OC)cc3o2)cc1OC
Number: 16

Please find the next compound below.
Req: Could you tell me which IC50 is on file for COc1ccc(-c2cc(=O)c3c(OC)c([C@@H]4O[C@H](C(=O)N[C@@H](C)C(F)(F)F)[C@@H](O)[C@H](O)[C@H]4O)c(OC)cc3o2)cc1OC ?
Resp: 2
